meta.source: patent US11447517B2

Form field: log10 of Kd (one value per entry).
biological target: galectin-3 (Homo sapiens (Human)); assay: Fluorescence anisotropy assay, inhibition of galectin / fluorescein tagged saccharide probe interaction
Sequence (P17931 whole entry): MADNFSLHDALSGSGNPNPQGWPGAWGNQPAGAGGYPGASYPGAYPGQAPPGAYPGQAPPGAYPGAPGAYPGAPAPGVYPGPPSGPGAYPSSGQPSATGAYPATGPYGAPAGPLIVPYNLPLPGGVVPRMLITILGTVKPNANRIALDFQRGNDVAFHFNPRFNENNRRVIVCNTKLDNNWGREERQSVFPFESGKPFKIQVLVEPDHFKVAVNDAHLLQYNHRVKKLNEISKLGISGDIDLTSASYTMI
Scale type: logarithmic (base 10). Underlying Kd unit: nM.

Observe how each entry below is paired with its result.
| COMPOUND | EXPERIMENTAL_SYSTEM | log10 of Kd |
| --- | --- | --- |
| CO[C@@H]1[C@@H](n2cc(-c3ccc(C)c(F)c3)nn2)[C@@H](O)[C@@H](CO)O[C@@H]1Sc1cc(Cl)ccc1C(=O)N1CCC1 [Example 41] | galectin-3 (Homo sapiens (Human)) | 0.85 |
| CO[C@@H]1[C@@H](n2cc(-c3ccc(C)c(F)n3)nn2)[C@@H](O)[C@@H](CO)O[C@@H]1Sc1cncc(Cl)c1 [Example 43] | galectin-3 (Homo sapiens (Human)) | 1.59 |
| CCO[C@@H]1[C@@H](n2cc(-c3cc(F)c(F)c(F)c3)nn2)[C@@H](O)[C@@H](CO)O[C@@H]1Sc1cc(Br)ccc1C(=O)N1CCC1 [Example 65] | galectin-3 (Homo sapiens (Human)) | 1.26 |
| CO[C@@H]1[C@@H](n2cc(-c3ccc(C)c(F)c3)nn2)[C@@H](O)[C@@H](CO)O[C@@H]1Sc1cncc(Cl)c1 [Example 35] | galectin-3 (Homo sapiens (Human)) | 1.65 |
| CO[C@@H]1[C@@H](n2cc(-c3cc(F)c(Cl)c(F)c3)nn2)[C@@H](O)[C@@H](CO)O[C@@H]1Sc1cncc(Cl)c1 [Example 33] | galectin-3 (Homo sapiens (Human)) | 1.49 |
| C#Cc1cnc(C#N)c(S[C@H]2O[C@H](CO)[C@H](O)[C@H](n3cc(-c4cc(F)c(Cl)c(F)c4)nn3)[C@H]2OC)c1 [Example 56] | galectin-3 (Homo sapiens (Human)) | 1.45 |
| CO[C@@H]1[C@@H](n2cc(-c3ccc(Cl)c(F)c3)nn2)[C@@H](O)[C@@H](CO)O[C@@H]1Sc1cncc(Br)c1 [Example 38] | galectin-3 (Homo sapiens (Human)) | 1.79 |
| CO[C@@H]1[C@@H](n2cc(-c3cc(F)c(F)c(F)c3)nn2)[C@@H](O)[C@@H](CO)O[C@@H]1Sc1cc(-c2nccs2)cnc1-c1nccs1 [Example 32] | galectin-3 (Homo sapiens (Human)) | 2.32 |

Req: Read off the recorded log10 of Kd for CO[C@@H]1[C@@H](n2cc(-c3ccc(C)c(F)c3)nn2)[C@@H](O)[C@@H](CO)O[C@@H]1Sc1cncc(Br)c1 [Example 36]
Resp: 1.41

Req: Read off the recorded log10 of Kd for CO[C@@H]1[C@@H](n2cc(-c3cc(F)c(Cl)c(F)c3)nn2)[C@@H](O)[C@@H](CO)O[C@@H]1Sc1cnc(C(F)(F)F)c(C#N)c1 [Example 58]
Resp: 2.28

* * *

assay: Uptake over CACO-2 cell monolayers; type: in vitro ADME; conditions: human, basolateral to apical
MEASURE: Papp B→A (×10⁻⁶ cm/s)
Enter your answer as a number in ×10⁻⁶ cm/s; do not include the unit.

| COMPOUND | DATA_VALUE |
| --- | --- |
| CO[C@@H]1[C@@H](n2cc(-c3ccc(C)c(F)c3)nn2)[C@@H](O)[C@@H](CO)O[C@@H]1Sc1cncc(Br)c1 | 32 |
| CO[C@@H]1[C@@H](n2cc(-c3ccc(C)c(F)n3)nn2)[C@@H](O)[C@@H](CO)O[C@@H]1Sc1cncc(Cl)c1 | 34 |
| CO[C@@H]1[C@@H](n2cc(-c3ccc(C)c(F)c3)nn2)[C@@H](O)[C@@H](CO)O[C@@H]1Sc1cncc(Cl)c1 | 45 |

Please look at the following compound next.
Req: Read off the recorded Papp B→A for OCC1O[C@H](Sc2cncc(Cl)c2)C(O)[C@@H](n2cc(-c3cc(F)c(F)c(F)c3)nn2)[C@H]1O (stereo partly shown)
Resp: 36
